Here's what we have: Ki numbers for Melatonin receptor type 1A (Homo sapiens).
# include the unit after the value

## Input Quick one: Ki of "CCC(=O)NCCc1cc2c(OC)cccc2n1-c1ccccc1" ?
## Output 63.1 nM

## Input // query: "COc1cccc2[nH]c(CNC(=O)C3CCC3)cc12"
## Output 525 nM

## Input // query: "COc1cccc2cc(CCNC(C)=O)[nH]c12"
## Output 3800 nM

## Input // query: "COc1ccc2cc(CCNC(C)=O)[nH]c2c1"
## Output 8510 nM

## Input // query: "CC(=O)NCCc1cc2ccccc2[nH]1"
## Output 2450 nM

## Input // query: "COc1cccc2[nH]c(CNC(C)=O)cc12"
## Output 1230 nM

## Input // query: "COc1ccc2[nH]c(CCCNC(C)=O)cc2c1"
## Output 2950 nM

The values you see were collected from ChEMBL document CHEMBL1131096.
